Where do these numbers come from? They come from patent US20110237567A9.

# Test system: sodium channel
# Protocol description: Guanidine influx assay (in vitro)
# Type: cell-based, human or rat
# Condition parameters: known cell line that expresses a sodium channel; read-out: IC50 Activity Level
Test readout: IC50

Compound	Test readout	Result
O=C1N2CCCOc3cccc(c32)C12COc1cc3c(cc12)OCO3 (centres unmarked) [Example 2]	IC50	100 to 1000 nM
O=C1N2CCCCc3ccc(Br)c(c32)C12COc1cc3c(cc12)OCO3 (centres unmarked) [Example 4]	IC50	10 to 100 nM
